These data points were gathered from ChEMBL document CHEMBL4699435.

Test: Cytotoxicity against human THP-1 cells assessed as reduction in cell viability incubated for 72 hrs by MTT assay
Format: cell-based
RECORDED METRIC: CC50 at 72 h

>>> reported_value("CCCCC/C=C\\C/C=C\\CCCCCCCC(=O)NC(C)c1ccc(Br)cc1 (configuration not stated)")
"81.4 µM"
>>> reported_value("CCCCC/C=C\\C/C=C\\CCCCCCCC(=O)NCCc1ccccc1")
"88.2 µM"
>>> reported_value("CCCCCCCC/C=C\\CCCCCCCC(=O)NCCc1ccc(O)c(O)c1")
"> 100 µM"
>>> reported_value("CCCCC/C=C\\C/C=C\\CCCCCCCC(=O)NC(C)(C)c1ccccc1")
"97.3 µM"
>>> reported_value("CCCCCCCC/C=C\\CCCCCCCC(=O)NCc1ccccc1")
"97.3 µM"
>>> reported_value("CCCCC/C=C\\C/C=C\\CCCCCCCC(=O)Nc1ccccc1")
"97.8 µM"
>>> reported_value("CCCCC/C=C\\C/C=C\\CCCCCCCC(=O)NC(CC)c1ccccc1 (configuration not stated)")
"96.5 µM"
>>> reported_value("CCCCC/C=C\\C/C=C\\CCCCCCCC(=O)NC(C)c1ccc(O)cc1 (configuration not stated)")
"93.5 µM"
>>> reported_value("CCCCC/C=C\\C/C=C\\CCCCCCCC(=O)NCc1ccccc1")
"98.4 µM"
>>> reported_value("CCCCC/C=C\\C/C=C\\CCCCCCCC(=O)NC(C)c1ccc(C)cc1 (configuration not stated)")
"95 µM"
>>> reported_value("CCCCC/C=C\\C/C=C\\CCCCCCCC(=O)NNc1ccccc1")
"98.1 µM"
>>> reported_value("CCCCCCCCCCCCCCCCCC(=O)NCc1ccccc1")
"100 µM"
>>> reported_value("CCCCCCCCCCCCCCCC(=O)NCc1ccccc1")
"100 µM"
>>> reported_value("CCCCC/C=C\\C/C=C\\CCCCCCCC(=O)NC(C)c1ccc(F)cc1 (configuration not stated)")
"82.5 µM"
>>> reported_value("CCCCC/C=C\\C/C=C\\CCCCCCCC(=O)NC(C)c1ccccc1 (configuration not stated) [MALINAMIDE]")
"95.8 µM"
>>> reported_value("CCCCC/C=C\\C/C=C\\CCCCCCCC(=O)OC(C)c1cc(C)cc(C)c1 (configuration not stated)")
"90.1 µM"
>>> reported_value("CCCCCCCC/C=C\\CCCCCCCC(=O)O")
"100 µM"
>>> reported_value("CCCCC/C=C\\C/C=C\\CCCCCCCC(=O)NCCCc1ccccc1")
"80.3 µM"
>>> reported_value("CCCCC/C=C\\C/C=C\\CCCCCCCC(=O)NC(C)C12CC3CC(CC(C3)C1)C2 (configuration not stated)")
"90.9 µM"
>>> reported_value("CCCCCCCC(=O)NCc1ccccc1")
"100 µM"
>>> reported_value("CCCCC/C=C\\C/C=C\\CCCCCCCC(=O)NC(C)c1ccc(CC)cc1 (configuration not stated)")
"89.8 µM"
>>> reported_value("CCCCC/C=C\\C/C=C\\CCCCCCCC(=O)OCc1ccccc1")
"95.4 µM"
>>> reported_value("CCCCC/C=C\\C/C=C\\CCCCCCCC(=O)NC(CO)c1ccccc1 (configuration not stated)")
"98 µM"
>>> reported_value("CCCCC/C=C\\C/C=C\\CCCCCCCC(=O)NC(C)C1CCCCC1 (configuration not stated)")
"93.2 µM"
>>> reported_value("CCCCC/C=C\\C/C=C\\CCCCCCCC(=O)NC(C)c1cc(C)cc(C)c1 (configuration not stated)")
"93.2 µM"
>>> reported_value("CCCCC/C=C\\C/C=C\\CCCCCCCC(=O)NC(C)c1cccc(C)c1 (configuration not stated)")
"91.7 µM"
>>> reported_value("CCCCC/C=C\\C/C=C\\CCCCCCCC(=O)NC(C)C(C)(C)C (configuration not stated)")
"94.7 µM"
